Data origin: the supplement of paper PMC10065799

- measured_on: SHP2-C SH2
- measurement_notes: SH2 binding enrichment of the phosphorylated peptide, bacterial display (enrichment ratio); higher = better substrate or ligand; peptides without Tyr show the background
Classify by SH2 binding enrichment. Ranges: bucket A = under 0.6, bucket B = from 0.6 up to 0.8, bucket C = 0.8 and over

* RPGGRYPVARR [SHANK3_Y1569_S1566G] | bucket A
* LTERSYSFVTT [ACTA1_Y200_G199S] | bucket C
* KMGNIYRTEYG [MRPL3_Y265] | bucket B
* KDAGDYKCKAK [LRIT3_Y326] | bucket B
* HLWRIYFDITD [MMP27_Y307_YF] | bucket B
* PEADKYHLTYA [FGG_Y300_R301H] | bucket B
* QGFDTYFGFLL [ARSB_Y165_R160Q_YF] | bucket B
* YSNKLYYQLEQ [PDPR_Y109] | bucket C
* KKCTTYIDCDL [ASPA_Y64_R63T] | bucket C
* NTGDFYDLFGG [PTPN11_Y63_YF] | bucket B
* IINENYDFLKV [NUP98_Y1664_G1669V_YF] | bucket C
* DQNVEYKGTVW [FHL1_Y117] | bucket A
* TDRNLYSKNLV [CFAP58_Y501_S496T] | bucket A
* GIFSGYDDAWD [POLR1C_Y36_N32I_YF] | bucket B
* EKIANYKEGTF [CLRN1_Y171_YF] | bucket A
* KQMEQYMSFHK [HCN1_Y417_V414M] | bucket A

###

- measured_on: FGFR3 (UniProt P22607)
- Sequence (P22607 whole entry, looked up): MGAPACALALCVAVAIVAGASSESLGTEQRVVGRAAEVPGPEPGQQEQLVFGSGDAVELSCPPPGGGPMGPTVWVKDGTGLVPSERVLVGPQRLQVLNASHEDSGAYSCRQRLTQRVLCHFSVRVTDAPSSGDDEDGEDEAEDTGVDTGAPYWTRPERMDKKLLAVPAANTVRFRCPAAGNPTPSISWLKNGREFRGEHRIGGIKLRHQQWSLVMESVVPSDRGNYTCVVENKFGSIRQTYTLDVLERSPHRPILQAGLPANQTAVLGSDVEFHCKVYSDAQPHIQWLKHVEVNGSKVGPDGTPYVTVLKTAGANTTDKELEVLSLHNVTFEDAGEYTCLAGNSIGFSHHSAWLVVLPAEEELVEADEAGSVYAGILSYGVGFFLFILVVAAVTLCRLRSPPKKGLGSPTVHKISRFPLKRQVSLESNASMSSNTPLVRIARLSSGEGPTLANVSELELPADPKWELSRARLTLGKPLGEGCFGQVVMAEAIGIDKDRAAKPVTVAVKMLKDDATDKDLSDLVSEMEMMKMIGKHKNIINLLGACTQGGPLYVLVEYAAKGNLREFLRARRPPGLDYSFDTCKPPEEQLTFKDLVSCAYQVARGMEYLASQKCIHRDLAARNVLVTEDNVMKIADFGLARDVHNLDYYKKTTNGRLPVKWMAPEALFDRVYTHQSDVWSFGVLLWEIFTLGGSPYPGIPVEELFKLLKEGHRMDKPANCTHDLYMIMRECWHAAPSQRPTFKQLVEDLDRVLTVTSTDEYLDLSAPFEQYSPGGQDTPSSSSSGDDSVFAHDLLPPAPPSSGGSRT
- measurement_notes: phosphorylation enrichment, bacterial display (enrichment ratio); higher = better substrate or ligand; peptides without Tyr show the background
Decide using phosphorylation enrichment: a value greater than or equal to 0.7 is yes, a smaller one is no.

• LRTAVHHEILI [CREBBP_Y1450_Y1450H] = yes
• KYVVVYFREID [IL17RB_Y447] = yes
• GTATAYLCGVK [ALPL_Y117] = no
• RQSTLYSFFPK [MSH6_Y8] = yes
• EQWRAYLEGTC [HLA-C_Y183_L180W] = yes
• VSYDEYRYRSF [CFTR_Y515_V520F] = no
• TFGVLYKARNK [CDK2_Y19_V18L_YF] = no
• AHAGEYGEEAL [HBA1_Y25_A27E] = yes
• CSEEMYCLMLQ [RET_Y981_R982C] = yes
• FSMGCYEISLG [HMGCL_Y198_YF] = yes

###

- measured_on: Fyn (UniProt P06241)
- Sequence (P06241 whole entry, looked up): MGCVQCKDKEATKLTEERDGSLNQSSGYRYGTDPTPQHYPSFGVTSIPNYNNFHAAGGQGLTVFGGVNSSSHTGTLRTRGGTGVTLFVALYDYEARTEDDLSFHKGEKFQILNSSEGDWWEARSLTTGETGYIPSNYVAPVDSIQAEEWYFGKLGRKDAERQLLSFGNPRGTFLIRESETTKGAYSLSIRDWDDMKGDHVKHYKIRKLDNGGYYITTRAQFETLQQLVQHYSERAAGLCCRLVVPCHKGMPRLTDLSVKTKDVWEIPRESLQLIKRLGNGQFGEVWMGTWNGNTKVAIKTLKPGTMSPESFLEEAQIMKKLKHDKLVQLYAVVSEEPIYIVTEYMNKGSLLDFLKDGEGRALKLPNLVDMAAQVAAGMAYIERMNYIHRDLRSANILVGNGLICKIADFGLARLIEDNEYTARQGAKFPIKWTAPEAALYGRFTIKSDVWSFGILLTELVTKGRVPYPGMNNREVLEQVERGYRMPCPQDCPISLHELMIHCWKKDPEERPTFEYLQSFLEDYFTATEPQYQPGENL
- measurement_notes: phosphorylation enrichment, bacterial display (enrichment ratio); higher = better substrate or ligand; peptides without Tyr show the background
List of phosphorylation enrichment values.
experimental_endpoint: phosphorylation enrichment

* GTSLIYWILFT [G6PC3_Y214_T216I] | 2.42
* KWHREYNSKYV [RICTOR_Y835] | 0.398
* RLKAKYPAATG [GLI3_Y933_A934P] | 0.755
* SVVVCYEPPEV [TP53_Y220_P219C] | 0.573
* RKKLFYKADGE [SERPINC1_Y272_E269K] | 0.621
* RGEKQYLATPL [ALOX12_Y295_A298T] | 0.665
* YGMSSYITRED [FNDC3B_Y180_T179S] | 0.423
* MCVKSYTIHFS [F5_Y2153_Y2149C_YF] | 0.489
* RQAQAYRGQRV [TSHR_Y706] | 1
* FFSSEYHFVGG [CTSC_Y345_YF] | 2
* YRTPGYREVVI [TNS2_Y673_A670T] | 0.425
* TSEASYYKSLN [NGEF_Y288] | 0.464
* AQQPIYIRVEG [NLRP7_Y318_V319I] | 0.525
* DFPGIYSGFDD [POLR1C_Y33_N32I_YF] | 9.82
* NIRKKYYRAIL [CHD7_Y1217_Q1214R] | 0.443
* KLQKKYGPIFS [CYP17A1_Y60_YF] | 0.38
* QTLTDYDIRFF [CSNK2A1_Y131_YF] | 0.709

###

- measured_on: Grb2 SH2 (UniProt P62993)
- Sequence (P62993 whole entry, looked up): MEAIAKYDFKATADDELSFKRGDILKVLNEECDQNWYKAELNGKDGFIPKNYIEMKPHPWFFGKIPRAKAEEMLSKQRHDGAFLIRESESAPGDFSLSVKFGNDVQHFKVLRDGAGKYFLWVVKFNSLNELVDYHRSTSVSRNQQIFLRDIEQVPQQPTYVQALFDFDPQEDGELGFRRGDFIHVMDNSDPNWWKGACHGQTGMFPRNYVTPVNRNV
- measurement_notes: SH2 binding enrichment of the phosphorylated peptide, bacterial display (enrichment ratio); higher = better substrate or ligand; peptides without Tyr show the background
List of SH2 binding enrichment values.
experimental_endpoint: SH2 binding enrichment

* CTTIHYNFRCN [TP53_Y234_M237R_YF] | 1.61
* PVQAADQKVVA [HBB_Y131_Y131D] | 0.731
* IIEDPYYGNDS [ACP1_Y132] | 0.88
* RLNCIYFKDQT [RS1_Y165_W163C_YF] | 1.05

###

- Test system: Fer (mouse)
- measurement_notes: phosphorylation enrichment, bacterial display (enrichment ratio); higher = better substrate or ligand; peptides without Tyr show the background
experimental_endpoint: phosphorylation enrichment

• SVTCTNSPALN [TP53_Y126_Y126N] = 0.588
• ADVLDYIKALN [HPRT1_Y81_L78V] = 0.415
• FCRHNYGVVES [HLA-DRB1_Y112_YF] = 0.555
• KDFTIYNPNLL [VANGL1_Y290] = 0.599
• CVAARYMDVKG [WFIKKN2_Y93] = 0.442
• SVVVPYQPPEV [TP53_Y220_E221Q] = 0.467
• KNSFKYFMSDD [ATRX_Y203_C200S_YF] = 0.412
• CTTIFYNFMCN [TP53_Y234_H233Y_YF] = 1.05
• DGSALYTGSAL [COL6A3_Y524] = 0.643
• RLCQDYDTIGP [ANK1_Y1073] = 1.05
• DVLEFCNSKKT [PAK1_Y131_Y131C] = 0.436
• CSTIHYNFMCN [TP53_Y234_T230S_YF] = 0.423
• VNRSGYTLIRK [ATP6V0A2_Y688] = 0.366
• PSSRDYKDNIK [PIGN_Y227_H229D] = 0.407
• IYLGAYDRFLP [SLC22A5_Y486_V481I] = 2.42
• TYGVVYKARNK [CDK2_Y19] = 0.46
• CKLVDYDSARH [BIN1_Y150_R145C] = 0.401
• TEAEPYFRSLR [NPHS1_Y1138_YF] = 0.494
• YSNKLYYQLEQ [PDPR_Y109] = 0.81
• PQEVTYAQLDH [KIR3DL2_Y398] = 3.3

###

- System: AncSZ
- measurement_notes: phosphorylation enrichment, bacterial display (enrichment ratio); higher = better substrate or ligand; peptides without Tyr show the background
Classify by phosphorylation enrichment. Ranges: low end: < 0.7; middle: ≥ 0.7 and < 1; high end: ≥ 1

• RRIYSYRGHLW [VHL_Y112_H110Y] = high end
• DFPIGYPSYLA [TBCK_Y153] = middle
• SSEYHCVGGFY [CTSC_Y347_Y347C] = high end
• FISLIYTNFEV [GSTP1_Y109_A114V_YF] = high end
• NIRKKYYRAIL [CHD7_Y1217_Q1214R] = low end
• RAMPVYKKAEH [TP63_Y231] = low end
• IRKDLYSNNVL [ACTC1_Y296_A297S] = low end
• FSAPNYCFRCG [PPP2CA_Y265_YF] = low end
• RNNIEYVRDIG [MUSK_Y577] = low end
• GNLQENLTRHV [TGFBR2_Y336_Y336N] = low end
• KRAIGHYSATS [FAM120A_Y327_Y327H] = low end
• ENAGFYFRISA = high end
• CSEEMYCLMLQ [RET_Y981_R982C] = high end
• LTFHMYADPNF [SOS1_Y618_YF] = high end
• LKALHYMAQTS [SACS_Y3367_V3369A] = middle
• SDVDLYQVRIA [PSMD9_Y70_T74I] = middle
• SGTYQYIIAKF [FOXL2_Y83_I80T] = high end
• RCKNHYAAFSV [C1QTNF1_Y145_S143N] = low end

###

- Test system: c-Src
- measurement_notes: phosphorylation enrichment, bacterial display (enrichment ratio); higher = better substrate or ligand; peptides without Tyr show the background
experimental_endpoint: phosphorylation enrichment

- QRIFQYIQSRF [DYRK1B_Y273_YF]: 0.557
- TNGFTCGSSHQ [MANEA_Y331_Y331C]: 0.392
- AVSEGYKDFRA [CDA_Y79]: 0.338

###

- System: AncSZ
- measurement_notes: phosphorylation enrichment, bacterial display (enrichment ratio); higher = better substrate or ligand; peptides without Tyr show the background
Classify by phosphorylation enrichment. Ranges: range A = under 0.8, range B = from 0.8 up to 1, range C = 1 and over

* ESSKAYERDLS [TTC37_Y1074_A1077D] | range A
* LARDMHDKEYY [MET_Y1230_Y1230H] | range A
* WLFFRYLPIGC [ATP2A2_Y836_A838P] | range C
* NTSKMYIPHTD [EXPH5_Y782_D777N] | range A
* PQGVRYIFTID [DCX_Y103_YF] | range C
* VQDPAYLRDIN [OPRK1_Y369_D374N] | range B
* TEFSQYMRRKN [MAX_Y73_I71S_YF] | range A
* AFRRGYFDEEM [PLEC_Y2971_YF] | range C
* LLKNMYLMLDN [STAT1_Y203_K201N] | range C
* VIKDKYPKAHY [APTX_Y209_R213H] | range A
* QGFDTYFGFLL [ARSB_Y165_R160Q_YF] | range C
* IAINKYEVSLI [MYO7A_Y2136_G2137E] | range B
* KNEVLYDGENH [ARFGEF1_Y314] | range B
* KKFPDYIQSAM [SGMS2_Y59_I62S_YF] | range A
* GCRSKHVGLWG [KCNQ1_Y184_Y184H] | range A
* LNFNEYFRDLN [HPRT1_Y198_D194N_YF] | range C
* DDKEFYSVHNK [MET_Y1235_Y1230D_YF] | range B
* GRSTFYWPRPR [GAGE12J_Y10_YF] | range B
